B1: S. cerevisiae Abp1 (full length; SH3 domain 535-592 mutated) / Hua2 (parent)
chain 1: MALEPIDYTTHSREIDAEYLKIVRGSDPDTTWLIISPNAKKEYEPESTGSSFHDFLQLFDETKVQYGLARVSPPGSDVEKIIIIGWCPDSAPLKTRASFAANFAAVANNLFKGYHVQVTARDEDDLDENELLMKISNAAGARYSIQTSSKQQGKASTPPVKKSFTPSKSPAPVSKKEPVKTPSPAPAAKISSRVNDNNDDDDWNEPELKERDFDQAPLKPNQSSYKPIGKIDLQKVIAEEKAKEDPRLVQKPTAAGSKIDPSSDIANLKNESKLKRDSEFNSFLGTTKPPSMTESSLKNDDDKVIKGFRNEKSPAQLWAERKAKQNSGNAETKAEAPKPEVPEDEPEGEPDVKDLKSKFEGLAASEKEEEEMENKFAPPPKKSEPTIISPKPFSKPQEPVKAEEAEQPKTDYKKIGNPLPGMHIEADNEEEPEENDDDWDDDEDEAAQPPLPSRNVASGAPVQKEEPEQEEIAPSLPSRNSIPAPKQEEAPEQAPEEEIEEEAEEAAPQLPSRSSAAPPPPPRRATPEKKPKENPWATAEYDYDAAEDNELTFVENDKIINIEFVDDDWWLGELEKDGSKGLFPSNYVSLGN
chain 2: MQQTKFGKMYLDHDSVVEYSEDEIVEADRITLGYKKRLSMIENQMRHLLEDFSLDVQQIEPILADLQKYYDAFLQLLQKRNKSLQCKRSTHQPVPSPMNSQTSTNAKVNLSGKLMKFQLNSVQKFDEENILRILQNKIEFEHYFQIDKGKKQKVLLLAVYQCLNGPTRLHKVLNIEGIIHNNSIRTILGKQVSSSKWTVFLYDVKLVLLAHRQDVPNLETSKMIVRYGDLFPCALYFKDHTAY

Variants of: B1
Experiment: DHFR protein-fragment complementation in yeast (Abp1-DHFR F[1,2] x partner-DHFR F[3]), deep mutational scanning, second methotrexate selection vs reference
Details: with Hua2; S. cerevisiae, DHFR-PCA selection in liquid with methotrexate at 30 C, two 72 h selections (the score uses the second); reference = the pre-selection culture; not an affinity; scale: DMS score: mean over two replicates of log2(f_test/f_ref + 0.5)/ln 2, minus the synonymous-codon median
screen value of -2 or higher: Satisfied. Under -2: Not satisfied.

[
  {
    "mutantLabel": "chain 1 D557C",
    "className": "Not satisfied"
  },
  {
    "mutantLabel": "chain 1 Y587Q",
    "className": "Not satisfied"
  },
  {
    "mutantLabel": "chain 1 G581R",
    "className": "Not satisfied"
  },
  {
    "mutantLabel": "chain 1 V588A",
    "className": "Satisfied"
  },
  {
    "mutantLabel": "chain 1 E563L",
    "className": "Satisfied"
  },
  {
    "mutantLabel": "chain 1 F564S",
    "className": "Not satisfied"
  },
  {
    "mutantLabel": "chain 1 A539T",
    "className": "Satisfied"
  },
  {
    "mutantLabel": "chain 1 V588G",
    "className": "Not satisfied"
  },
  {
    "mutantLabel": "chain 1 E575P",
    "className": "Satisfied"
  },
  {
    "mutantLabel": "chain 1 D566V",
    "className": "Not satisfied"
  },
  {
    "mutantLabel": "chain 1 N556P",
    "className": "Not satisfied"
  },
  {
    "mutantLabel": "chain 1 W570G",
    "className": "Not satisfied"
  },
  {
    "mutantLabel": "chain 1 A539G",
    "className": "Not satisfied"
  },
  {
    "mutantLabel": "chain 1 D577R",
    "className": "Not satisfied"
  },
  {
    "mutantLabel": "chain 1 L582N",
    "className": "Not satisfied"
  },
  {
    "mutantLabel": "chain 1 V588D",
    "className": "Not satisfied"
  },
  {
    "mutantLabel": "chain 1 L551R",
    "className": "Not satisfied"
  },
  {
    "mutantLabel": "chain 1 P584L",
    "className": "Not satisfied"
  },
  {
    "mutantLabel": "chain 1 T552E",
    "className": "Satisfied"
  },
  {
    "mutantLabel": "chain 1 E547G",
    "className": "Not satisfied"
  },
  {
    "mutantLabel": "chain 1 Y541G",
    "className": "Satisfied"
  },
  {
    "mutantLabel": "chain 1 W570R",
    "className": "Not satisfied"
  },
  {
    "mutantLabel": "chain 1 G578D",
    "className": "Satisfied"
  },
  {
    "mutantLabel": "chain 1 E575F",
    "className": "Satisfied"
  },
  {
    "mutantLabel": "chain 1 I562T",
    "className": "Not satisfied"
  },
  {
    "mutantLabel": "chain 1 D557A",
    "className": "Not satisfied"
  },
  {
    "mutantLabel": "chain 1 L590R",
    "className": "Not satisfied"
  },
  {
    "mutantLabel": "chain 1 S589P",
    "className": "Not satisfied"
  },
  {
    "mutantLabel": "chain 1 L590P",
    "className": "Satisfied"
  },
  {
    "mutantLabel": "chain 1 D577Y",
    "className": "Not satisfied"
  },
  {
    "mutantLabel": "chain 1 I559S",
    "className": "Satisfied"
  },
  {
    "mutantLabel": "chain 1 Y543N",
    "className": "Satisfied"
  },
  {
    "mutantLabel": "chain 1 K580W",
    "className": "Satisfied"
  },
  {
    "mutantLabel": "chain 1 G578Y",
    "className": "Not satisfied"
  },
  {
    "mutantLabel": "chain 1 E575T",
    "className": "Satisfied"
  },
  {
    "mutantLabel": "chain 1 G578L",
    "className": "Not satisfied"
  },
  {
    "mutantLabel": "chain 1 L590S",
    "className": "Not satisfied"
  },
  {
    "mutantLabel": "chain 1 L551T",
    "className": "Not satisfied"
  },
  {
    "mutantLabel": "chain 1 K576F",
    "className": "Not satisfied"
  },
  {
    "mutantLabel": "chain 1 F583C",
    "className": "Not satisfied"
  },
  {
    "mutantLabel": "chain 1 I562M",
    "className": "Satisfied"
  },
  {
    "mutantLabel": "chain 1 I559N",
    "className": "Not satisfied"
  },
  {
    "mutantLabel": "chain 1 S585I",
    "className": "Satisfied"
  },
  {
    "mutantLabel": "chain 1 V588M",
    "className": "Satisfied"
  },
  {
    "mutantLabel": "chain 1 K558D",
    "className": "Not satisfied"
  },
  {
    "mutantLabel": "chain 1 Y587D",
    "className": "Not satisfied"
  },
  {
    "mutantLabel": "chain 1 A537P",
    "className": "Not satisfied"
  },
  {
    "mutantLabel": "chain 1 A545Y",
    "className": "Not satisfied"
  },
  {
    "mutantLabel": "chain 1 E555W",
    "className": "Satisfied"
  },
  {
    "mutantLabel": "chain 1 W570Y",
    "className": "Not satisfied"
  },
  {
    "mutantLabel": "chain 1 V565E",
    "className": "Not satisfied"
  },
  {
    "mutantLabel": "chain 1 V588F",
    "className": "Not satisfied"
  },
  {
    "mutantLabel": "chain 1 L571P",
    "className": "Not satisfied"
  },
  {
    "mutantLabel": "chain 1 I560W",
    "className": "Not satisfied"
  },
  {
    "mutantLabel": "chain 1 L571G",
    "className": "Satisfied"
  },
  {
    "mutantLabel": "chain 1 A545W",
    "className": "Not satisfied"
  },
  {
    "mutantLabel": "chain 1 L582H",
    "className": "Satisfied"
  },
  {
    "mutantLabel": "chain 1 L590Y",
    "className": "Satisfied"
  },
  {
    "mutantLabel": "chain 1 G581A",
    "className": "Not satisfied"
  },
  {
    "mutantLabel": "chain 1 E547V",
    "className": "Not satisfied"
  },
  {
    "mutantLabel": "chain 1 K576V",
    "className": "Satisfied"
  },
  {
    "mutantLabel": "chain 1 Y543Q",
    "className": "Not satisfied"
  },
  {
    "mutantLabel": "chain 1 K580G",
    "className": "Not satisfied"
  },
  {
    "mutantLabel": "chain 1 N561C",
    "className": "Not satisfied"
  },
  {
    "mutantLabel": "chain 1 Y543K",
    "className": "Not satisfied"
  },
  {
    "mutantLabel": "chain 1 S585E",
    "className": "Not satisfied"
  },
  {
    "mutantLabel": "chain 1 S579I",
    "className": "Satisfied"
  },
  {
    "mutantLabel": "chain 1 E573W",
    "className": "Not satisfied"
  },
  {
    "mutantLabel": "chain 1 F553Y",
    "className": "Not satisfied"
  },
  {
    "mutantLabel": "chain 1 E575N",
    "className": "Satisfied"
  },
  {
    "mutantLabel": "chain 1 L582S",
    "className": "Not satisfied"
  },
  {
    "mutantLabel": "chain 1 L551F",
    "className": "Not satisfied"
  },
  {
    "mutantLabel": "chain 1 Y543D",
    "className": "Not satisfied"
  },
  {
    "mutantLabel": "chain 1 E547F",
    "className": "Satisfied"
  },
  {
    "mutantLabel": "chain 1 L590T",
    "className": "Not satisfied"
  },
  {
    "mutantLabel": "chain 1 L590W",
    "className": "Satisfied"
  },
  {
    "mutantLabel": "chain 1 L590Q",
    "className": "Not satisfied"
  },
  {
    "mutantLabel": "chain 1 I562F",
    "className": "Not satisfied"
  },
  {
    "mutantLabel": "chain 1 D557V",
    "className": "Not satisfied"
  },
  {
    "mutantLabel": "chain 1 S579G",
    "className": "Satisfied"
  },
  {
    "mutantLabel": "chain 1 A537D",
    "className": "Not satisfied"
  }
]
